The binders listed here are annotated with their absorbance.
# Assay target: T1, monkey EphA4 extracellular domain-SEAP-His protein (monkey)
# T1 construct: the fusion as a whole has none; not shown: SEAP-His part
# T1 sequence (chain, as listed by the source): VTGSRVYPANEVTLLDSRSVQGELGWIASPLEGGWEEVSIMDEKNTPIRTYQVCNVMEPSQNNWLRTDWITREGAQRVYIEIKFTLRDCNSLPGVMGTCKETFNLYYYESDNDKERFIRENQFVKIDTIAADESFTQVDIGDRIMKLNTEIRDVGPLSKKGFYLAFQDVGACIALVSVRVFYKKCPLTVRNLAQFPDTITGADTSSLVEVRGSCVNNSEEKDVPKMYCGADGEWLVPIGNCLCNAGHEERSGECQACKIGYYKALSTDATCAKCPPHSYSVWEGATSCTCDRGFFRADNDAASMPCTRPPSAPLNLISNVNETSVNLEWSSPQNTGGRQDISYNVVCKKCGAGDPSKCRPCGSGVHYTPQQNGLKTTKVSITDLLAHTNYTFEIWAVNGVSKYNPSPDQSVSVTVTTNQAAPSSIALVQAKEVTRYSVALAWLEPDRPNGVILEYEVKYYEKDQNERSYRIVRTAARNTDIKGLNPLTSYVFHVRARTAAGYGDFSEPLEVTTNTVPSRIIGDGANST
# Experiment: ELISA

These recorded examples may help you get a feel for the data.
Binder	Experimental result
KPEP11_13 (antibody, V domains shown, Rabbit IgG; also called anti-human EphA4 rabbit monoclonal antibody KPEP11_13) VH: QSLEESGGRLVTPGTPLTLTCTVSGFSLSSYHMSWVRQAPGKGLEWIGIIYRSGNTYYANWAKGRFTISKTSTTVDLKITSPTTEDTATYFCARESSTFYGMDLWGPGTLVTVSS VL: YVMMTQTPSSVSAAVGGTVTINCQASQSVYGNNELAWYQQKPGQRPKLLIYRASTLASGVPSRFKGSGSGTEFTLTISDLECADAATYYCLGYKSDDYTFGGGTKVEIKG	1.17
KPEP11_02 (antibody, V domains shown, Rabbit IgG; also called anti-human EphA4 rabbit monoclonal antibody KPEP11_02) VH: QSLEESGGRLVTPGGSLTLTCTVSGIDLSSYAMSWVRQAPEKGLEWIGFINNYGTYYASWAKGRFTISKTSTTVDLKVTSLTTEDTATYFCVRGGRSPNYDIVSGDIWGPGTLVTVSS VL: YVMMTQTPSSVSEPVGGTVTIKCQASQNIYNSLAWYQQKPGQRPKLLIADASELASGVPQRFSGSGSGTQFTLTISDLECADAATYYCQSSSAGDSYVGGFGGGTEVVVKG	1.2
KPEP11_09 (antibody, V domains shown, Rabbit IgG; also called anti-human EphA4 rabbit monoclonal antibody KPEP11_09) VH: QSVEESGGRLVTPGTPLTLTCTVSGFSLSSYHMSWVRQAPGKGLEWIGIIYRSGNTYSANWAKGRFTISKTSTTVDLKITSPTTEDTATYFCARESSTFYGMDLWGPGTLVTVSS VL: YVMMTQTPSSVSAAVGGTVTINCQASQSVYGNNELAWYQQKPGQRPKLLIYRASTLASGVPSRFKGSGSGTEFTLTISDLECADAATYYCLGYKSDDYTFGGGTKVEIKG	1.15
KPEP11_01 (antibody, V domains shown, also called anti-human EphA4 rabbit monoclonal antibody KPEP11_01) VH: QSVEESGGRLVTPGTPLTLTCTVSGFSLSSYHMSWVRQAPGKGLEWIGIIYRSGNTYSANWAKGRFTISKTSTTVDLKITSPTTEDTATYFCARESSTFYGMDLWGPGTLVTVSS VL: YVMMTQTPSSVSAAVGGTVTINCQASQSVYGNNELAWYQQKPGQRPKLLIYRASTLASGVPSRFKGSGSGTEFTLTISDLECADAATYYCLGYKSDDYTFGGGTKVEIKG	1.18

Req: State its absorbance: KPEP11_20 (antibody, V domains shown, Rabbit IgG; also called anti-human EphA4 rabbit monoclonal antibody KPEP11_20) VH: QSLEESGGRLVTPGTPLTLTCTVSGFSLNNYYMNWVRQAPGKGLEWIGIIYPDIDTTDYASWVKGRFTISKTSTTVDLKITSPTTEDTATYFCARSDIDYYTTRLDLWGQGTLVTISS VL: AQVLTQTPSPVSAAVGGTVSINCQSSPSVYNNNWLSWFQQKPGQPPKLLIYGASTLASGVPSRFKGSGSGTQFTLTISDVQCDDAATYYCAGGYDSNSDTAFGGGTELEILG
Resp: 1.15
